Ref: patent US20110092544A1

- Test system: Erysiphe graminis f. sp. tritici
- Test: Test A: wheat powdery mildew, preventive spray on wheat seedlings, visual disease rating
- Assay type: in vivo
- Conditions: 200 ppm, 100 = 100% disease control, 0 = no control
Test A rating (% disease control) values, listed per item
# value in %; strip the unit string

[
  {
    "Compound": "COc1cc(OC)cc(-c2c(C(=O)N(C)C)cnc(C)c2-c2ccccc2)c1",
    "Test A rating (% disease control) / %": 96
  },
  {
    "Compound": "COc1cc(OC)cc(-c2c(C(C)=O)cnc(C)c2-c2ccccc2F)c1",
    "Test A rating (% disease control) / %": 96
  },
  {
    "Compound": "Cc1ncc(-c2ccccc2F)c(-c2cc(OC(F)F)cc(OC(F)F)c2)c1-c1ccc(F)cc1",
    "Test A rating (% disease control) / %": 82
  },
  {
    "Compound": "CCC(C)(O)c1cnc(C)c(-c2ccc(F)cc2)c1-c1cc(OC)cc(OC)c1 (centres unmarked)",
    "Test A rating (% disease control) / %": 97
  },
  {
    "Compound": "COc1cc(OC)cc(-c2c(C3=CCCCC3)cnc(C)c2-c2ccc(F)cc2)c1",
    "Test A rating (% disease control) / %": 81
  }
]

Input: Value lookup for Test A rating (% disease control); key = CCOC(=O)c1cnc(C)c(-c2ccccc2)c1-c1cc(OC)cc(OC)c1
Output: 96

Input: Value lookup for Test A rating (% disease control); key = CCOC(=O)c1c[n+]([O-])c(C)c(-c2ccccc2)c1-c1cc(OC)cc(OC)c1
Output: 76

Input: Value lookup for Test A rating (% disease control); key = COc1cc(OC)cc(-c2c(-c3ccc(F)cc3)cnc(C)c2-c2ccccc2)c1
Output: 65

Input: Value lookup for Test A rating (% disease control); key = COc1cc(OC)cc(-c2c(-c3c(F)cccc3F)cnc(C#N)c2-c2c(F)cccc2F)c1
Output: 78

Input: Value lookup for Test A rating (% disease control); key = COc1cc(OC)cc(-c2c(-c3c(F)cc(F)cc3F)cnc(Cl)c2-c2c(F)cc(F)cc2F)c1
Output: 95

Input: Value lookup for Test A rating (% disease control); key = COc1cc(OC)cc(-c2c(C(O)C(C)C)cnc(C)c2-c2c(F)cc(F)cc2F)c1 (centres unmarked)
Output: 100

Input: Value lookup for Test A rating (% disease control); key = COc1cc(OC)cc(-c2c(C(C)(C)O)cnc(C)c2-c2ccccc2F)c1
Output: 98

Input: Value lookup for Test A rating (% disease control); key = CCc1ncc(C(C)(C)O)c(-c2cc(OC)cc(OC)c2)c1-c1ccccc1
Output: 96

Input: Value lookup for Test A rating (% disease control); key = CCC(O)c1cnc(C)c(-c2c(F)cc(F)cc2F)c1-c1cc(OC)cc(OC)c1 (centres unmarked)
Output: 100

Input: Value lookup for Test A rating (% disease control); key = COc1cc(OC)cc(-c2c(C(C)(C)O)cnc(C)c2-c2c(F)cccc2F)c1
Output: 100

Input: Value lookup for Test A rating (% disease control); key = COc1cc(OC)cc(-c2c(C(C)=O)cnc(C)c2-c2ccccc2)c1
Output: 95

Input: Value lookup for Test A rating (% disease control); key = CCc1ncc(C(C)C)c(-c2cc(OC)cc(OC)c2)c1-c1ccccc1
Output: 98

====

- System: Puccinia recondite f. sp. tritici
- Test: Test B: wheat leaf rust, preventive spray on wheat seedlings, visual disease rating
- Assay type: in vivo
- Conditions: 200 ppm, 100 = 100% disease control, 0 = no control
Test B rating (% disease control) values, listed per item
# value in %; strip the unit string

[
  {
    "Compound": "COc1cc(OC)cc(-c2c(C(C)O)cnc(C)c2-c2c(F)cc(F)cc2F)c1 (stereo not shown)",
    "Test B rating (% disease control) / %": 100
  },
  {
    "Compound": "COc1cc(OC)cc(-c2c(-c3c(F)cccc3F)cnc(C#N)c2-c2c(F)cccc2F)c1",
    "Test B rating (% disease control) / %": 96
  },
  {
    "Compound": "C=C(C)c1cnc(C)c(-c2ccc(OC)cc2)c1-c1cc(OC)cc(OC)c1",
    "Test B rating (% disease control) / %": 99
  }
]

Turning now to a further record.
Input: Recall the recorded Test B rating (% disease control) for CCOC(=O)c1cnc(C)c(-c2ccccc2)c1-c1cc(OC)cc(OC)c1F with Puccinia recondite f. sp. tritici and state it.
Output: 68

====

- Tested on: Puccinia recondite f. sp. tritici
- Test: Test B: wheat leaf rust, preventive spray on wheat seedlings, visual disease rating
- Format: in vivo
- Conditions: 200 ppm, 100 = 100% disease control, 0 = no control
Test B rating (% disease control) values, listed per item
# value in %; strip the unit string

Input: Value lookup for Test B rating (% disease control); key = COc1cc(OC)cc(-c2c(C3CCOCC3)cnc(C)c2-c2ccc(F)cc2)c1 [Compound 59]
Output: 100

Input: Value lookup for Test B rating (% disease control); key = CCOC(=O)c1cnc(C)c(-c2ccccc2)c1-c1cc(OC)cc(OC)c1 [Compound 1]
Output: 28

Input: Value lookup for Test B rating (% disease control); key = COc1ccc(-c2c(C)ncc(C(C)(O)CO)c2-c2cc(OC)cc(OC)c2)cc1 (single isomer, unassigned) [Compound 85]
Output: 61

Input: Value lookup for Test B rating (% disease control); key = COc1cc(OC)cc(-c2c(C(C)C)c[n+]([O-])c(C)c2-c2ccccc2)c1 [Compound 5]
Output: 92

Input: Value lookup for Test B rating (% disease control); key = COc1cc(OC)cc(-c2c(C(C)(C)O)cnc(C)c2-c2c(F)ccc(F)c2F)c1 [Compound 69]
Output: 100

====

- Tested on: Alternaria solani
- Test: Test E: tomato early blight, preventive spray on tomato seedlings, visual disease rating
- Type: in vivo
- Conditions: 40 ppm (compound number followed by *)
Measured Quantity: Test E rating (% disease control) (%)
# value in %; strip the unit string

[
  {
    "Molecule": "COc1cc(OC)c(Cl)c(-c2c(-c3ccccc3F)cnc(C)c2-c2ccc(F)cc2)c1 [Compound 126]",
    "Measured Quantity": "Test E rating (% disease control)",
    "Data Value": 97
  },
  {
    "Molecule": "COc1cc(OC)cc(-c2c(C=O)cnc(C)c2-c2c(F)ccc(OC)c2F)c1 [Compound 113]",
    "Measured Quantity": "Test E rating (% disease control)",
    "Data Value": 9
  },
  {
    "Molecule": "COc1cc(OC)c(Cl)c(-c2c(-c3ccccc3F)cnc(C)c2-c2c(F)cc(F)cc2F)c1Cl [Compound 136]",
    "Measured Quantity": "Test E rating (% disease control)",
    "Data Value": 0
  }
]

Turning now to a further record.
Input: Recall the recorded Test E rating (% disease control) for Cc1cnc(C)c(-c2c(F)cccc2F)c1-c1ccc(Cl)cc1 [Compound 144] with Alternaria solani and state it.
Output: 0

====

- Tested on: Erysiphe graminis f. sp. tritici
- Test: Test A: wheat powdery mildew, preventive spray on wheat seedlings, visual disease rating
- Format: in vivo
- Conditions: 200 ppm, 100 = 100% disease control, 0 = no control
- From the text: General protocol for preparing test suspensions for Tests A-H: The test compounds were first dissolved in acetone in an amount equal to 3% of the final volume and then suspended at the desired concentration (in ppm) in acetone and purified water (50/50 mix) containing 250 ppm of the surfactant Trem® 014 (polyhydric alcohol esters). […]
Test A rating (% disease control) values, listed per item
# value in %; strip the unit string

Solved entries (count: 5):
[
  {
    "Molecule": "COc1cc(OC)cc(-c2c(C(C)O)cnc(C)c2-c2c(F)cc(F)cc2F)c1 (stereo not shown) [Compound 107]",
    "Unit Descriptor": "%",
    "Test A rating (% disease control)": 100
  },
  {
    "Molecule": "CNC(=O)c1cnc(C)c(-c2ccccc2)c1-c1cc(OC)cc(OC)c1 [Compound 9]",
    "Unit Descriptor": "%",
    "Test A rating (% disease control)": 94
  },
  {
    "Molecule": "COc1cc(OC)cc(-c2c(Cn3cncn3)cnc(C)c2-c2c(F)cc(F)cc2F)c1 [Compound 104]",
    "Unit Descriptor": "%",
    "Test A rating (% disease control)": 100
  },
  {
    "Molecule": "COc1cc(OC)cc(-c2c(Cn3cccn3)cnc(C)c2-c2c(F)cc(F)cc2F)c1 [Compound 97]",
    "Unit Descriptor": "%",
    "Test A rating (% disease control)": 100
  },
  {
    "Molecule": "COc1cc(OC)cc(-c2c(-c3ccccc3F)cnc(C)c2-c2ccccc2)c1 [Compound 32]",
    "Unit Descriptor": "%",
    "Test A rating (% disease control)": 98
  }
]

Input: Value lookup for Test A rating (% disease control); key = COc1cc(OC)cc(-c2c(C3CCOCC3)cnc(C)c2-c2ccc(F)cc2)c1 [Compound 59]
Output: 79

Input: Value lookup for Test A rating (% disease control); key = COc1ccc(-c2c(C)ncc(C(C)(C)O)c2-c2cc(OC)cc(OC)c2)cc1 [Compound 62]
Output: 80

Input: Value lookup for Test A rating (% disease control); key = CCOC(=O)c1cnc(C)c(-c2ccccc2)c1-c1cc(OC)cc(OC)c1F [Compound 26]
Output: 94

Input: Value lookup for Test A rating (% disease control); key = COc1cc(OC)cc(-c2c(-c3ccc(F)cc3)cnc(C)c2-c2ccc(F)cc2F)c1 [Compound 95]
Output: 93

Input: Value lookup for Test A rating (% disease control); key = COc1cc(OC)cc(-c2c(C(C)C)c[n+]([O-])c(C)c2-c2ccccc2)c1 [Compound 5]
Output: 98

Input: Value lookup for Test A rating (% disease control); key = COc1ccc(-c2c(C)ncc(C(C)(O)CO)c2-c2cc(OC)cc(OC)c2)cc1 (single isomer, unassigned) [Compound 83]
Output: 95

Input: Value lookup for Test A rating (% disease control); key = C=C(C)c1cnc(C)c(-c2c(F)cc(OC)cc2F)c1-c1cc(OC)cc(OC)c1 [Compound 74]
Output: 100

Input: Value lookup for Test A rating (% disease control); key = COc1ccc(-c2c(C)ncc(C(C)(O)CO)c2-c2cc(OC)cc(OC)c2)cc1 (single isomer, unassigned) [Compound 85]
Output: 43

Input: Value lookup for Test A rating (% disease control); key = CCOC(=O)c1cnc(C)c(-c2ccc(OC)cc2)c1-c1cc(OC)cc(OC)c1 [Compound 60]
Output: 59

Input: Value lookup for Test A rating (% disease control); key = COc1cc(OC)cc(-c2c(-c3ccccc3)c(C)nc(C)c2-c2ccccc2F)c1 [Compound 23]
Output: 62

Input: Value lookup for Test A rating (% disease control); key = COc1cc(OC)cc(-c2c(C(C)(C)O)cnc(C)c2-c2c(F)ccc(F)c2F)c1 [Compound 69]
Output: 99
